Source: the supplement of paper PMC10567573

For each entry below, report its protein stability index value.
B1: TBX5 (parent)
chain: FHEVGTEMIITKAGRRMFPSYKVK

- Variants of: B1
- TEST_METHOD_NOTES: protein stability index of a GFP-peptide fusion (GPS, HEK-293T) (PSI 1-6); higher = more stable;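 further: lentivirally expressed fusions sorted by FACS into six bins by GFP to DsRed ratio, PSI derived from sequencing read proportions per bin multiplied by bin number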
- REPORTED_CONDITIONS: c terminus: a fixed tail appended
No unit in the answer, please; the number alone is enough.

Ask: What measured protein stability index goes with FHEVGTEMIITKAGRRMFPSYKVY [K24Y] ?
Result: 2.08

Ask: Item: FHEVGTEMIITKASRRMFPSYKVK [G14S]
Result: 1.83

Ask: Item: FHEVGTEMIITKAGRRMFPSSKVK [Y21S]
Result: 2.61

Ask: Item: FHEVGTEMIIAKAGRRMFPSYKVK [T11A]
Result: 3.29

Ask: Item: FHEVGTEMIITKEGRRMFPSYKVK [A13E]
Result: 2.68

Ask: Item: FHEVGNEMIITKAGRRMFPSYKVK [T6N]
Result: 1.68

Ask: Item: FHEVGCEMIITKAGRRMFPSYKVK [T6C]
Result: 1.52

Ask: Item: FHEVGTEMIITKAGRRMFPCYKVK [S20C]
Result: 3.1

Ask: Item: FHEVGTEVIITKAGRRMFPSYKVK [M8V]
Result: 1.43

Ask: Item: FVEVGTEMIITKAGRRMFPSYKVK [H2V]
Result: 2.38

Ask: Item: FHEVGTEMIITKFGRRMFPSYKVK [A13F]
Result: 1.97

Ask: Item: RHEVGTEMIITKAGRRMFPSYKVK [F1R]
Result: 2.58

Ask: Item: FHEVGTEMIITKAMRRMFPSYKVK [G14M]
Result: 1.49

Ask: Item: FHEVGTEMIITKAGRRMFPSYKVS [K24S]
Result: 1.15

Ask: Item: FHEVGTEMIITKWGRRMFPSYKVK [A13W]
Result: 1.93

Ask: Item: FHEVGTEMIITKAGRRMVPSYKVK [F18V]
Result: 2.01

Ask: Item: FHEVGTEMIITKAGRRMFPSYKGK [V23G]
Result: 2.9

Ask: Item: FHEVGTEMIITKAGRDMFPSYKVK [R16D]
Result: 2.15

Ask: Item: FHEVGTEMIITKAGRRMFPSCKVK [Y21C]
Result: 2.21

Ask: Item: FHEVGTEMIITKMGRRMFPSYKVK [A13M]
Result: 1.3

Ask: Item: FHEVGTEMIITKAGRRMFPKYKVK [S20K]
Result: 2.18

Ask: Item: FHEVGTHMIITKAGRRMFPSYKVK [E7H]
Result: 1.55

Ask: Item: FHEKGTEMIITKAGRRMFPSYKVK [V4K]
Result: 1.98

Ask: Item: FLEVGTEMIITKAGRRMFPSYKVK [H2L]
Result: 2.07

Ask: Item: FHEVGTEMIITKAGRRMFPSYTVK [K22T]
Result: 1.51

Ask: Item: FHEVGTEMIITKAGSRMFPSYKVK [R15S]
Result: 1.69

Ask: Item: FHEVGTEMIITKAGRRMFPSYKVQ [K24Q]
Result: 1.33

Ask: Item: FHEVGTEMIITKHGRRMFPSYKVK [A13H]
Result: 2.11
